MEASUREMENT TARGET: D2 receptor (long isoform, D2L) (Rattus norvegicus)
ASSAY NAME: biochemical
ASSAY CONTEXT: affinity of [3H]methylspiperone saturation binding, transfected COS-7 cell membranes; mean ± SEM
PROPERTY: Kd (nM)
Report the value in nM with no unit label.

// query # input compound: CN1CN(c2ccccc2)C2(CCN(CCCC(=O)c3ccc(F)cc3)CC2)C1=O [[3H]methylspiperone] ; wanted: its Kd
// result 0.0621

---

MEASUREMENT TARGET: D2 receptor (long isoform, D2L) (Rattus norvegicus, UniProt P61169)
Sequence (P61169 whole entry, canonical isoform): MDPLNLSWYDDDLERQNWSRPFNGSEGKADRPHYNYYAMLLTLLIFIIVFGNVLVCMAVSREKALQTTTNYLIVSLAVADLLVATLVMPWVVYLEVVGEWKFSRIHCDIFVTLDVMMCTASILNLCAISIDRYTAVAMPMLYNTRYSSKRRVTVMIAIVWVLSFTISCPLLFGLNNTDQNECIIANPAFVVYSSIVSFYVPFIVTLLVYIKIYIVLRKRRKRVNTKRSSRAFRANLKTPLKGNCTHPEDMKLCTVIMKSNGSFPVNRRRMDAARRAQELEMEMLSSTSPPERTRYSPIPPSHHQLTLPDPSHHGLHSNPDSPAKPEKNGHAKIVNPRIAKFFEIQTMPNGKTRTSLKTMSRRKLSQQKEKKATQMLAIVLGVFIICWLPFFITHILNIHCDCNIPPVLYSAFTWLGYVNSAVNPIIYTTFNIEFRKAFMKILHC
ASSAY NAME: biochemical
ASSAY CONTEXT: calculated KD of [3H]methylspiperone binding (Scatchard), transfected COS-7 cell membranes; one experiment representative of three (FIG. 2A)
PROPERTY: pKd
pKd (log units): -log10 of the concentration in mol/L.

// query Record request: pKd value, item CN1CN(c2ccccc2)C2(CCN(CCCC(=O)c3ccc(F)cc3)CC2)C1=O [[3H]methylspiperone]
// result 10.19
